conditions: in water, 294.8 K
Reported endpoint: solubility (mole fraction)
Answers are plain numbers.

Return reported solubility (mole fraction). Input compound: CC1(C)C[C@@H]1C(N)=O
0.00374

Where do these numbers come from? They come from BigSolDB 2.1.
